The reported measurements were obtained from ChEMBL document CHEMBL1149272.

# system: Telomerase reverse transcriptase (Homo sapiens)
# Sequence (O14746 whole entry): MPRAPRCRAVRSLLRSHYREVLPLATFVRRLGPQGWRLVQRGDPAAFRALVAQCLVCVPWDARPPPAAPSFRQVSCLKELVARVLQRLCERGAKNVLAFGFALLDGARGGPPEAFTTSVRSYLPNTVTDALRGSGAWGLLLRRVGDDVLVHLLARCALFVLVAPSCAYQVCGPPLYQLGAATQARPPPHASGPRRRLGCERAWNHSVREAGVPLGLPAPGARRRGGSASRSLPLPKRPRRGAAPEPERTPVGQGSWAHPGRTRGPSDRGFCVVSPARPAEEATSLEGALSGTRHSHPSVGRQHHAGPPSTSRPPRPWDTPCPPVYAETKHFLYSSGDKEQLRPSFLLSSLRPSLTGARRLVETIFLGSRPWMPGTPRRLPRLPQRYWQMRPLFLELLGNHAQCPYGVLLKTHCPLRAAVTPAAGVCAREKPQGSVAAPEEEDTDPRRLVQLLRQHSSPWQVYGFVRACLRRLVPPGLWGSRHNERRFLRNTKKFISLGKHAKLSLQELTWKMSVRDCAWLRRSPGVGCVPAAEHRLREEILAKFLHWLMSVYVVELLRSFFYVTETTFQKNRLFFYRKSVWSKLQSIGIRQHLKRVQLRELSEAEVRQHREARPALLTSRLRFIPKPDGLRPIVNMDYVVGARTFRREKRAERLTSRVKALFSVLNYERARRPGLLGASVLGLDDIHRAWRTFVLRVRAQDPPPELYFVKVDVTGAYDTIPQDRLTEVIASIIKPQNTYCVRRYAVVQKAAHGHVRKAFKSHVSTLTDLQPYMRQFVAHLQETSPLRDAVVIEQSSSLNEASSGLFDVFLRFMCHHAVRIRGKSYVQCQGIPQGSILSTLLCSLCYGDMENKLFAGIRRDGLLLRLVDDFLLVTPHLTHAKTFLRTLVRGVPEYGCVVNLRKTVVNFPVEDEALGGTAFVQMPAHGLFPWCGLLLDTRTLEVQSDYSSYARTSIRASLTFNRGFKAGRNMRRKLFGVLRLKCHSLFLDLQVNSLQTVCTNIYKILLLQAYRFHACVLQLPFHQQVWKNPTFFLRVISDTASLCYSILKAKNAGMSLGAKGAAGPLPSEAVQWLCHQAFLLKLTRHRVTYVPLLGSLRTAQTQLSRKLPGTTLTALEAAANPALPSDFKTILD
# assay.summary: Inhibition of human telomerase from HEK293 cell extracts by Flash-Plate assay
pIC50: −log10 of the molar value.
test.readout: pIC50

P. O=c1cc(-c2ccc3[nH]cnc3c2)oc2c(O)c(O)ccc12
Q. O=c1cc(-c2cccc(O)c2)oc2c(O)c(O)ccc12
Query: Could you please tell me which of these two has the higher pIC50: P or Q ? Reply briefly: the label of your chosen item.
Result: P

P. O=c1[nH]c2ccc(-c3cc(=O)c4ccc(O)c(O)c4o3)cc2[nH]1
Q. COc1ccc(-c2cc(=O)c3ccc(O)c(O)c3o2)cc1O
R. O=C(/C=C/c1ccc(O)c(O)c1)c1ccc(O)c(O)c1O
Query: // sort entries: pIC50, high to low Reply with the labels, ordered as the question asks.
Result: P, R, Q

---

# system: Telomerase reverse transcriptase (Homo sapiens)
# assay.summary: Inhibition of human telomerase from HEK293 cell extracts by Flash-Plate assay
test.readout: IC50 (µM)

A. O=c1cc(-c2ccccc2)oc2c(O)c(O)ccc12 [7,8-DIHYDROXYFLAVONE]
B. COc1ccc2c(=O)cc(-c3ccc4[nH]c(CCCN(C)C)nc4c3)oc2c1OC
C. O=C(/C=C/c1ccc(O)c(O)c1)c1ccc(O)c(O)c1
Query: Task for the reader: place the compounds above in descending order according to recorded IC50. Reply with the labels, ordered as the question asks.
Result: A, C, B
(A: 36 µM, C: 1.7 µM, B: 0.47 µM)

---

# system: UniProt:O14746
# assay.summary: Inhibition of human telomerase from HEK293 cell extracts by Flash-Plate assay
test.readout: IC50

Query: Please give measured IC50 of the following entry: O=c1cc(-c2ccc(O)c(O)c2)oc2c(O)cccc12
Result: > 40 µM

Query: Please give measured IC50 of the following entry: COc1ccc2c(=O)cc(-c3ccc4[nH]c(=O)c(=O)[nH]c4c3)oc2c1OC
Result: > 40 µM

Query: Please give measured IC50 of the following entry: Cc1nc2cc(-c3cc(=O)c4ccc(O)c(O)c4o3)ccc2[nH]1
Result: > 40 µM

---

# system: Telomerase reverse transcriptase (Homo sapiens)
# assay.summary: Inhibition of human telomerase from HEK293 cell extracts by Flash-Plate assay
# Format: cell-free
pIC50: −log10 of the molar value.
test.readout: pIC50

# count of solved cases: 2
>  <structure.notation>
COc1ccc(-c2cc(=O)c3ccc(O)c(O)c3o2)cc1OC

>  <pIC50>
4.93

$$$$
>  <structure.notation>
O=c1cc(-c2ccc(O)c(O)c2)oc2c(O)c(O)ccc12

>  <pIC50>
6.70

$$$$

A. COc1ccc2c(=O)cc(-c3ccc4[nH]c(C)nc4c3)oc2c1OC
B. O=c1cc(-c2ccc(O)c(O)c2)oc2c(O)c(O)c(Cl)cc12
Query: Of A and B , which carries the smaller reported pIC50 figure? Reply briefly: the label of your chosen item.
Result: A
(A: 4.66, B: 6.09)
